Target: IN catalytic core CC (IN50-213) (HIV-1, UniProt P04585 1197-1360)
Experiment: fluorescence anisotropy
measure_name: pKd
Give bare numbers, as −log10 of the molar value.

Problem: pKd for U5A/U5B (dsDNA) DNA 1: GTGTGGAAAATCTCTAGCAGT DNA 2: ACTGCTAGAGATTTTCCACAC ?
Result: 7.28
